# System: OVCAR-8 ovarian
# Protocol Details: NCI-60 one-dose screen, 48 h (100 = growth as untreated, 0 = no growth, -100 = all killed)
# Settings: 10 µM
About 83,000 compounds went through this panel and 20% of them were active in at least one assay; those are over-represented in the sample as a whole.
Quantity Name: growth (%)
Write the answer as a number in %, unit excluded.

Smiles String: CC(=O)/C=C/c1ccc(OCc2ccc(Cl)cc2)cc1
Measured Target: OVCAR-8 ovarian
Readout Units: %
Value Measured: 90.1

Smiles String: CC(=O)/C=C/c1ccc(OCc2ccc(C(C)(C)C)cc2)cc1
Measured Target: OVCAR-8 ovarian
Readout Units: %
Value Measured: 90.5

Smiles String: CC(=O)/C=C/c1ccc(N(CCO)Cc2ccc(C(C)(C)C)cc2)cc1
Measured Target: OVCAR-8 ovarian
Readout Units: %
Value Measured: 80.7

Smiles String: COc1ccc(C(=O)/C=C/c2ccc(OCc3ccc(Cl)cc3)cc2)cc1OC
Measured Target: OVCAR-8 ovarian
Readout Units: %
Value Measured: 92

Now let's try a different one.
get_value(item= COc1ccc(C(=O)/C=C/c2ccc(OCc3cccc(C(F)(F)F)c3)c(OC)c2)cc1OC , readout=growth) returns 67.1

Just for reference, PubChem BioAssay (NCI) is where these values come from.
